substrate: O=C(O)CO; assay: purified protein; conditions: 50 mM Tris-HCl pH 8.0, 0.1 mM FMN, 30 °C
measurement.label: kcat (s⁻¹)
Numbers only, in s⁻¹.

Sample records with kcat:
# protein, result.units, recorded.number
records = [
    ("AtGOX2 (Arabidopsis thaliana; T4D) (protein) MEIDNVTEYDAIAKAKLPKMVYDYYASGAEDQWTLQENRNAFARILFRPRILIDVNKIDMATTVLGFKISMPIMVAPTAFQKMAHPDGEYATARAASAAGTIMTLSSWATSSVEEVASTGPGIRFFQLYVYKNRKVVEQLVRRAEKAGFKAIALTVDTPRLGRRESDIKNRFTLPPNLTLKNFEGLDLGKMDEANDSGLASYVAGQIDRTLSWKDIQWLQTITNMPILVKGVLTGEDARIAIQAGAAGIIVSNHGARQLDYVPATISALEEVVKATQGRVPVFLDGGVRRGTDVFKALALGASGIFIGRPVVFALAAEGEAGVKKVLQMLRDEFELTMALSGCRSLSEITRNHIVTEWDTPRHLPRL", "s⁻¹", 1.40),
    ("AtGOX1 (Arabidopsis thaliana; T4D) (protein) MEIDNVTEYDAIAKQKLPKMVYDYYASGAEDQWTLQENRNAFARILFRPRILIDVSKIDMTTTVLGFKISMPIMVAPTAMQKMAHPDGEYATARAASAAGTIMTLSSWATSSVEEVASTGPGIRFFQLYVYKNRNVVEQLVRRAERAGFKAIALTVDTPRLGRRESDIKNRFTLPPNLTLKNFEGLDLGKMDEANDSGLASYVAGQIDRTLSWKDVQWLQTITKLPILVKGVLTGEDARIAIQAGAAGIIVSNHGARQLDYVPATISALEEVVKATQGRIPVFLDGGVRRGTDVFKALALGASGIFIGRPVVFSLAAEGEAGVRKVLQMLRDEFELTMALSGCRSLKEISRNHITTEWDTPRPSARL", "s⁻¹", 0.61),
    ("AtGOX2 (Arabidopsis thaliana; T265D) (protein) MEITNVTEYDAIAKAKLPKMVYDYYASGAEDQWTLQENRNAFARILFRPRILIDVNKIDMATTVLGFKISMPIMVAPTAFQKMAHPDGEYATARAASAAGTIMTLSSWATSSVEEVASTGPGIRFFQLYVYKNRKVVEQLVRRAEKAGFKAIALTVDTPRLGRRESDIKNRFTLPPNLTLKNFEGLDLGKMDEANDSGLASYVAGQIDRTLSWKDIQWLQTITNMPILVKGVLTGEDARIAIQAGAAGIIVSNHGARQLDYVPADISALEEVVKATQGRVPVFLDGGVRRGTDVFKALALGASGIFIGRPVVFALAAEGEAGVKKVLQMLRDEFELTMALSGCRSLSEITRNHIVTEWDTPRHLPRL", "s⁻¹", 2.06),
]

Hi, could you look up kcat for each item in my list?
1. AtGOX1 (Arabidopsis thaliana) (protein, full length (367 residues), N-terminal His-tag, pET28a, expressed in Escherichia coli) MEITNVTEYDAIAKQKLPKMVYDYYASGAEDQWTLQENRNAFARILFRPRILIDVSKIDMTTTVLGFKISMPIMVAPTAMQKMAHPDGEYATARAASAAGTIMTLSSWATSSVEEVASTGPGIRFFQLYVYKNRNVVEQLVRRAERAGFKAIALTVDTPRLGRRESDIKNRFTLPPNLTLKNFEGLDLGKMDEANDSGLASYVAGQIDRTLSWKDVQWLQTITKLPILVKGVLTGEDARIAIQAGAAGIIVSNHGARQLDYVPATISALEEVVKATQGRIPVFLDGGVRRGTDVFKALALGASGIFIGRPVVFSLAAEGEAGVRKVLQMLRDEFELTMALSGCRSLKEISRNHITTEWDTPRPSARL
2. AtGOX1 (Arabidopsis thaliana; T265D) (protein) MEITNVTEYDAIAKQKLPKMVYDYYASGAEDQWTLQENRNAFARILFRPRILIDVSKIDMTTTVLGFKISMPIMVAPTAMQKMAHPDGEYATARAASAAGTIMTLSSWATSSVEEVASTGPGIRFFQLYVYKNRNVVEQLVRRAERAGFKAIALTVDTPRLGRRESDIKNRFTLPPNLTLKNFEGLDLGKMDEANDSGLASYVAGQIDRTLSWKDVQWLQTITKLPILVKGVLTGEDARIAIQAGAAGIIVSNHGARQLDYVPADISALEEVVKATQGRIPVFLDGGVRRGTDVFKALALGASGIFIGRPVVFSLAAEGEAGVRKVLQMLRDEFELTMALSGCRSLKEISRNHITTEWDTPRPSARL
3. AtGOX1 (Arabidopsis thaliana; T158V) (protein) MEITNVTEYDAIAKQKLPKMVYDYYASGAEDQWTLQENRNAFARILFRPRILIDVSKIDMTTTVLGFKISMPIMVAPTAMQKMAHPDGEYATARAASAAGTIMTLSSWATSSVEEVASTGPGIRFFQLYVYKNRNVVEQLVRRAERAGFKAIALTVDVPRLGRRESDIKNRFTLPPNLTLKNFEGLDLGKMDEANDSGLASYVAGQIDRTLSWKDVQWLQTITKLPILVKGVLTGEDARIAIQAGAAGIIVSNHGARQLDYVPATISALEEVVKATQGRIPVFLDGGVRRGTDVFKALALGASGIFIGRPVVFSLAAEGEAGVRKVLQMLRDEFELTMALSGCRSLKEISRNHITTEWDTPRPSARL
4. AtGOX2 (Arabidopsis thaliana) (protein, full length, N-terminal His-tag, pET28a, expressed in Escherichia coli) MEITNVTEYDAIAKAKLPKMVYDYYASGAEDQWTLQENRNAFARILFRPRILIDVNKIDMATTVLGFKISMPIMVAPTAFQKMAHPDGEYATARAASAAGTIMTLSSWATSSVEEVASTGPGIRFFQLYVYKNRKVVEQLVRRAEKAGFKAIALTVDTPRLGRRESDIKNRFTLPPNLTLKNFEGLDLGKMDEANDSGLASYVAGQIDRTLSWKDIQWLQTITNMPILVKGVLTGEDARIAIQAGAAGIIVSNHGARQLDYVPATISALEEVVKATQGRVPVFLDGGVRRGTDVFKALALGASGIFIGRPVVFALAAEGEAGVKKVLQMLRDEFELTMALSGCRSLSEITRNHIVTEWDTPRHLPRL
5. AtGOX2 (Arabidopsis thaliana; T158V) (protein) MEITNVTEYDAIAKAKLPKMVYDYYASGAEDQWTLQENRNAFARILFRPRILIDVNKIDMATTVLGFKISMPIMVAPTAFQKMAHPDGEYATARAASAAGTIMTLSSWATSSVEEVASTGPGIRFFQLYVYKNRKVVEQLVRRAEKAGFKAIALTVDVPRLGRRESDIKNRFTLPPNLTLKNFEGLDLGKMDEANDSGLASYVAGQIDRTLSWKDIQWLQTITNMPILVKGVLTGEDARIAIQAGAAGIIVSNHGARQLDYVPATISALEEVVKATQGRVPVFLDGGVRRGTDVFKALALGASGIFIGRPVVFALAAEGEAGVKKVLQMLRDEFELTMALSGCRSLSEITRNHIVTEWDTPRHLPRL

1: 11.12; 2: 0.14; 3: 2.36; 4: 10.93; 5: 2.49
